We begin with a simple list: items and their reported pIC50.
- target_or_system: human PDE10A (UniProt Q9Y233)
- Sequence (Q9Y233 290-1055 limits assumed): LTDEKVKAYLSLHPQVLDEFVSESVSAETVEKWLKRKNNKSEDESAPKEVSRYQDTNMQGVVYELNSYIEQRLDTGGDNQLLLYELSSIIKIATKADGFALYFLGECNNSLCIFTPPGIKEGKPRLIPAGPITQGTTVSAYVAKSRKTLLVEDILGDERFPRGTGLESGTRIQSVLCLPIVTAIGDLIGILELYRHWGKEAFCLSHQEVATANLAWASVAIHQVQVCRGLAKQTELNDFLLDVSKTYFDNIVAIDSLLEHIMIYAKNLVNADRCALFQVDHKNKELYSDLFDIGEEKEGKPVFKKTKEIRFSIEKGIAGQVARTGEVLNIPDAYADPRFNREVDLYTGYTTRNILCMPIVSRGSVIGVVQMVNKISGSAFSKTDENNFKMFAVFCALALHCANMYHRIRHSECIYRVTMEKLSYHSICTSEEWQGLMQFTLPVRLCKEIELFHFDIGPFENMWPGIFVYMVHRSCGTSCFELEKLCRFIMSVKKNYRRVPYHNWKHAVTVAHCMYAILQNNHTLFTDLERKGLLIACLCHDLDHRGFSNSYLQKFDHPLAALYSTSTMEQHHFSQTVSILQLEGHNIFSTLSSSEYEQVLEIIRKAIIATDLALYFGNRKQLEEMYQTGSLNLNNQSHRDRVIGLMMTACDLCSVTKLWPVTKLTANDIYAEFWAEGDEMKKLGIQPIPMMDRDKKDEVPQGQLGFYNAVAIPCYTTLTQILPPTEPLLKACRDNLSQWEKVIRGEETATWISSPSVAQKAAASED
- assay_protocol: Measurement of PDE activity (recombinant enzyme, HTRF cAMP kit)
- Format: biochemical
- condition_context: Table 1, substrate 20 nM for PDE10, 60 minutes at 29 C, read-out: IC50
pIC50: −log10 of the molar value.

• COc1ncccc1-c1cccc2cnn(CCc3ccc4ccccc4n3)c(=O)c12 [Example 125] = 6.30 to 6.70
• O=c1c2cccc(-c3cncnc3)c2cnn1CCc1cn2ccccc2n1 [Example 197] = > 7.00
• O=c1c2c(-c3ccncc3)cccc2ccn1C1CC1c1ccc2ccccc2n1 (racemic) [Example 222] = > 7.00
• CC(C)(C)OC(=O)N1CC=C(c2cccc3cnn(CCc4cn5ccccc5n4)c(=O)c23)CC1 [Example 191] = 6.30 to 6.70
• O=c1c2c(-c3cccc(F)c3F)cccc2cnn1CCc1ccc2ccccc2n1 [Example 147] = > 7.00
• O=c1c2c(-c3ccc4ncccc4c3)csc2cnn1CCc1ccc2ccccc2n1 [Example 55] = > 7.00

Note to self: pIC50 of O=c1c2ccccc2c(N2CCOCC2)nn1CCc1cn2ccccc2n1 [Example 201] with human PDE10A (UniProt Q9Y233) was 6.30 to 6.70

Note to self: pIC50 of O=c1c2c(-c3ccoc3)cccc2cnn1CCc1cn2ccccc2n1 [Example 170] with human PDE10A (UniProt Q9Y233) was > 7.00

----------
- target_or_system: UniProt Q9Y233
- assay_protocol: Measurement of PDE activity (recombinant enzyme, HTRF cAMP kit)
- Format: biochemical
- condition_context: Table 1, substrate 20 nM for PDE10, 60 minutes at 29 C, read-out: IC50
pIC50: −log10 of the molar value.
result_type: pIC50

* O=c1c2c(-c3ccc(F)cc3Cl)csc2cnn1CCc1ccc2ccccc2n1 | 6.30 to 6.70
* O=c1c2c(-c3ccccc3)csc2cnn1CCc1ccc2ccccc2n1 | 6.70 to 7.00
* O=c1c2c(-c3ccoc3)csc2cnn1CCc1ccc2ccccc2n1 | > 7.00

For COc1cnccc1-c1cccc2cnn(CCc3cn4ccccc4n3)c(=O)c12 the compound record lists pIC50 as 6.30 to 6.70

For COc1cc(OC)cc(-c2cccc3cnn(CCc4ccc5ccccc5n4)c(=O)c23)c1 the compound record lists pIC50 as 6.30 to 6.70

----------
- target_or_system: human PDE10A (UniProt Q9Y233)
- assay_protocol: Measurement of PDE activity (recombinant enzyme, HTRF cAMP kit)
- Type: biochemical
- condition_context: Table 1, substrate 20 nM for PDE10, 60 minutes at 29 C, read-out: IC50
- Description: The recombinant PDE proteins are used in in vitro enzymatic reaction for measurement of PDE activity. […] The enzymatic activity of PDEs was determined by cAMP measurement kit from CisBio (IBA) using HTRF technology. The PDE enzymatic reaction was carried out in assay buffer (20 mM Tris-HCl pH7.5, 10 mM MgCl2, 0.1% bovine serum albumin) containing enzyme and substrate. […] The inhibitory effect of compound was determined by incubating various concentration of inhibitor in the enzymatic assay. […]
pIC50: −log10 of the molar value.
We begin with a simple list: items and their reported pIC50.

For O=c1c2c(NC3COC3)cccc2ccn1C1CC1c1ccc2ccccc2n1 (single isomer, unassigned; (+)) [Example 235a] the molecule record lists pIC50 as > 7.00

For CC(C)c1ccc(-c2csc3cnn(CCc4ccc5ccccc5n4)c(=O)c23)cc1 the molecule record lists pIC50 as > 7.00

For O=c1c2c(N3CCC4(COC4)C3)cccc2ccn1C1CC1c1ccc2ccccc2n1 (single isomer, unassigned) the molecule record lists pIC50 as > 7.00

For Cc1ncc(-c2csc3ccn(C4CC4c4ccc5ccccc5n4)c(=O)c23)cn1 (centres unmarked) the molecule record lists pIC50 as > 7.00

For O=c1c2c(-c3ccncc3)cccc2ccn1/C=C/c1ncc2ccccc2n1 the molecule record lists pIC50 as 6.70 to 7.00

For O=c1c2cccc(-c3cccnc3)c2cnn1CCc1ccc2ccccc2n1 the molecule record lists pIC50 as > 7.00

For O=c1c2c(N3CCS(=O)(=O)CC3)cccc2cnn1CCc1cn2ccccc2n1 the molecule record lists pIC50 as 6.70 to 7.00

For O=c1c2c(-c3cncnc3)csc2ccn1CCc1ccc2ccccc2n1 the molecule record lists pIC50 as > 7.00
